Would you kindly list pIC50 for each of these compounds?
- Tested on: HCT 116 cells
- assay info: Viability assay in HCT 116 cells (CellTiter-Glo)
- Type: cell-based
- condition: 120 h; HCT 116 human colon carcinoma cells, 5 days incubation, ATP luminescence readout
One number for each entry, as −log10 of the molar value.

molecule smiles	pIC50
CCN1C(=O)C(C)(C)c2cc3[nH]c(-c4n[nH]cc4NC(C)=O)nc3cc21	6.51
CCN1C(=O)C(C)(C)c2cc3[nH]c(-c4n[nH]cc4NC(=O)COC)nc3cc21	7.00
CCN(CCN(C)C)C(=O)Nc1c[nH]nc1-c1nc2cc3c(cc2[nH]1)C(C)(C)C(=O)N3CC	7.55
CCN1C(=O)C(C)(C)c2cc3[nH]c(-c4n[nH]cc4NC(=O)c4cccnc4)nc3cc21	7.24
CCN1C(=O)C(C)(C)c2cc3[nH]c(-c4n[nH]cc4NC(=O)N(C)C)nc3cc21	7.21

Please look at the following compound next.
Entry CCN1C(=O)C(C)(C)c2cc3[nH]c(-c4n[nH]cc4NC(=O)OC)nc3cc21 ; pIC50 = 6.42
